system_name: CDK2/cyclin A (Homo sapiens, UniProt P24941)
Construct: made in house; host or cells: CDK2: insect cells (baculovirus); cyclin A: E. coli
assay_info: Inhibition of CDK2/cyclin A retinoblastoma kinase activity (Ki; % inhibition)
Type: biochemical
study_conditions: at 0.03 μM
test_readout: CDK2 % Inhibition at 0.03 μM (%)
Respond numerically; units are % and should not be typed.

These recorded examples may help you get a feel for the data.
(Q) I have this molecule here, CC(C)C(CO)NC(=O)c1ccc(Nc2nc(N)c(C(=O)c3c(F)cccc3F)s2)cc1 (stereo not shown) [Example G102] , and I need its recorded CDK2 % Inhibition at 0.03 μM.
(A) −3

(Q) I have this molecule here, NC(=O)c1cccc(NC(=O)c2ccc(Nc3nc(N)c(C(=O)c4c(F)cccc4F)s3)cc2)c1 [Example G6] , and I need its recorded CDK2 % Inhibition at 0.03 μM.
(A) −1

Others:
(Q) I have this molecule here, CC(C)c1ccccc1NC(=O)c1ccc(Nc2nc(N)c(C(=O)c3c(F)cccc3F)s2)cc1 [Example G51] , and I need its recorded CDK2 % Inhibition at 0.03 μM.
(A) 9

(Q) I have this molecule here, CCOC(=O)CC(C)NC(=O)c1ccc(Nc2nc(N)c(C(=O)c3c(F)cccc3F)s2)cc1 (stereo not shown) [Example G117] , and I need its recorded CDK2 % Inhibition at 0.03 μM.
(A) 4
